Measurement record for E. coli biotin synthase (EcBioB) (Escherichia coli); quantity recorded: Ki.

{"columns": ["compound", "experimental_system", "observed"],
 "data": [
  ["O=C(O)CCCCCC1NC(=O)CS1 (racemic) [(±)-acidomycin, 6-(4-Oxothiazolidin-2-yl)hexanoic acid]", "E. coli biotin synthase (EcBioB) (Escherichia coli)", "2000 nM"]
]}

Report Ki for O=C(O)CCCCCC1NC(=O)CS1 (centres unmarked) [acidomycin] please.
~1000 nM

###

- experimental_system: E. coli biotin synthase (EcBioB) (Escherichia coli)
- Sequence (P12996 whole entry): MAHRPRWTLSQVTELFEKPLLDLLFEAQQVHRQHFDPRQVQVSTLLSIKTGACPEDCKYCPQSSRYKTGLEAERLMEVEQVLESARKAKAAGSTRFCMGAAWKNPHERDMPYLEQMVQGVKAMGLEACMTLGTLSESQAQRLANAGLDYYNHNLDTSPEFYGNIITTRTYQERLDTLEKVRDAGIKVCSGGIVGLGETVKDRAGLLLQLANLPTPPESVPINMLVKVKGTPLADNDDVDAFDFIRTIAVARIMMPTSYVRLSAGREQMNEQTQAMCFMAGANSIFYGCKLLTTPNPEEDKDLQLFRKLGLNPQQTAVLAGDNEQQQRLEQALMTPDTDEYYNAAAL
- assay_text: biochemical
- stated_conditions: 5 μM EcBioB dimer, 10 μM DTB, 100 μM SAM, single-turnover
reported_metric: pIC50
By convention, pIC50 is the negative base-10 log of a molar concentration.

Report pIC50 for O=C(O)CCCCC[C@H]1NC(=O)CS1 [(S)-(−)-acidomycin] please.
4.88
